Experiment: CEETOX_H295R_ESTRADIOL: CeeTox H295R High-throughput Steroidogenesis Assay for Estradiol (AID 2283440);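 note: estradiol secreted into medium quantified by LC-MS/MS after dansyl derivatisation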
Conditions: actives raise or lower the signal
The source made the active and inactive calls. Rule for the calls: active = hit-call score of the fitted dose curve at least 0.9, where 1 is the maximum; inactive = score below 0.9.
READOUT_LABEL: AC50

# COMPOUND, REPORTED_MEASUREMENT
records = [
    ("COCC(=O)N(c1c(C)cccc1C)C(C)C(=O)OC (configuration not stated)", "inactive"),
    ("CC1(C)CCC(=Cc2ccc(Cl)cc2)C1(O)Cn1cncn1 (configuration not stated)", "inactive"),
    ("Cc1nc(N(C)C)nc(OC(=O)N(C)C)c1C", "inactive"),
    ("CC(C)Oc1cccc(NC(=O)c2ccccc2C(F)(F)F)c1", "inactive"),
    ("CC(C)(C)C(=O)C(Oc1ccc(Cl)cc1)n1cncn1 (configuration not stated)", "21.7 µM (active)"),
    ("CCOc1nc(C(Cl)(Cl)Cl)ns1", "inactive"),
    ("CCN(CC)c1nc(C)cc(OP(=S)(OC)OC)n1", "1.22 µM (active)"),
]

The origin of these recorded values is PubChem BioAssay (EPA / NIEHS).
